B1: library; numbered along this chain (parent)
chain: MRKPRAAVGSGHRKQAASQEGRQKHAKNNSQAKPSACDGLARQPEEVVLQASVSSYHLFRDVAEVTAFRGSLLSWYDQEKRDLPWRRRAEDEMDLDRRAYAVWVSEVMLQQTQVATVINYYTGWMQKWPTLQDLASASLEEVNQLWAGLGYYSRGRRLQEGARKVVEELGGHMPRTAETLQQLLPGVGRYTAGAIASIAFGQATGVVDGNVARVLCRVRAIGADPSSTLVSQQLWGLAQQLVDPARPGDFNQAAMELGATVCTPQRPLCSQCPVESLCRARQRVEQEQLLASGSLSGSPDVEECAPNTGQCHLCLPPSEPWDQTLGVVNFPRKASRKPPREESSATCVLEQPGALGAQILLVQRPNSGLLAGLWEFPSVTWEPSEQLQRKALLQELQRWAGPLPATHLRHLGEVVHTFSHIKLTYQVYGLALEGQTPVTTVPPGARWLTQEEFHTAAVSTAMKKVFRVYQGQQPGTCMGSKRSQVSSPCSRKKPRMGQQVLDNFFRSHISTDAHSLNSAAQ

# Variants of: B1
# protocol.notes: 8OG:A repair function score (normalized; synonymous = 0, nonsense = -1) (normalized log-likelihood score); higher = more repair activity (WT-like);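 also: cells sorted at 72 h after reporter transfection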
# measurement.conditions: with 8OG:A DNA repair reporter (GFP) in HEK-293 MUTYH KO cells
Kindly supply the reported 8OG:A repair function score values for the records listed here.
Numbers only.

Answered examples (9):
[[record]]
mutation_name = "S136H"
recorded_metric = "8OG:A repair function score"
reported = -0.136

[[record]]
mutation_name = "Q358F"
recorded_metric = "8OG:A repair function score"
reported = -0.316

[[record]]
mutation_name = "P474M"
recorded_metric = "8OG:A repair function score"
reported = 0.0118

[[record]]
mutation_name = "V114F"
recorded_metric = "8OG:A repair function score"
reported = -0.42

[[record]]
mutation_name = "P383D"
recorded_metric = "8OG:A repair function score"
reported = 0.0298

[[record]]
mutation_name = "T436P"
recorded_metric = "8OG:A repair function score"
reported = -0.0919

[[record]]
mutation_name = "Y100D"
recorded_metric = "8OG:A repair function score"
reported = -1.79

[[record]]
mutation_name = "E303D"
recorded_metric = "8OG:A repair function score"
reported = -0.0577

[[record]]
mutation_name = "R283W"
recorded_metric = "8OG:A repair function score"
reported = -0.115


Lab note: next variant to report on.
What 8OG:A repair function score value was documented for this variant, A280S ?
-0.172
